Sourced from patent US11261152B2

System: glucocorticoid response element (GRE) / glucocorticoid receptor
Protocol description: GRE reporter assay
Format: cell-based
Test settings: Table 3 grade HIGH/MED/LOW, grades not defined
Recorded metric: GRE

Compound	Recorded metric	Result
C=C(CN(C)Cc1ccccc1)C(=O)/C(=C/c1ccc(Cl)c(Cl)c1)c1ccccc1.Cl [JN057]	GRE	HIGH
CN(C/C(=C\c1ccc(C(F)(F)F)cc1)C(=O)c1ccccc1)Cc1ccccc1 [JN044]	GRE	HIGH
C=C(CN(C)Cc1ccccc1)C(=O)/C(=C\c1ccc(F)cc1)c1ccccc1.Cl [JN055]	GRE	HIGH

====

Assayed target: AR (Homo sapiens)
Sequence (P10275 1-920): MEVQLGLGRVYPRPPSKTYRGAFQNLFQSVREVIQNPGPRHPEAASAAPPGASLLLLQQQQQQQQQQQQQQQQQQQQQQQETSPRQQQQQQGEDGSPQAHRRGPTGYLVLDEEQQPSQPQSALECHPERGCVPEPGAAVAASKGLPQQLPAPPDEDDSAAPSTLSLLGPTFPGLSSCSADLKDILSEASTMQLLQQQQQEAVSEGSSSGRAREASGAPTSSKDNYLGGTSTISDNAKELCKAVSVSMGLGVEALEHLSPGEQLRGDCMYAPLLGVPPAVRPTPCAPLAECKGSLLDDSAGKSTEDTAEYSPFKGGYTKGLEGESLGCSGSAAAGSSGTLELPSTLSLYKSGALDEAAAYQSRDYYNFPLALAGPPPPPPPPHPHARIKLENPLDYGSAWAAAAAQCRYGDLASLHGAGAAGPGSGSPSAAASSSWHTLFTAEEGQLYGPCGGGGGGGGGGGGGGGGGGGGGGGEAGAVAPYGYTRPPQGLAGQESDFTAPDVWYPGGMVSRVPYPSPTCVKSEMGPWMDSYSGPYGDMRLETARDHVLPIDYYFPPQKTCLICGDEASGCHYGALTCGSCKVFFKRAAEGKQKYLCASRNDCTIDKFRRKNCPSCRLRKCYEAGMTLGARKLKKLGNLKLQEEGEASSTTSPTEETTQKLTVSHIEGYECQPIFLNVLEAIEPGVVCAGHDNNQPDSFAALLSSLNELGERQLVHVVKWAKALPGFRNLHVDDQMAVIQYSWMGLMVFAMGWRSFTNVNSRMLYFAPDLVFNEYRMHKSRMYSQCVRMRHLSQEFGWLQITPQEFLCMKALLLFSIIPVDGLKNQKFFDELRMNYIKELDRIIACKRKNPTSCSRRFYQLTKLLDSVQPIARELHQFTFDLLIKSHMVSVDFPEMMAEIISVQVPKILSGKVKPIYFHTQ
Structures can show the parent of a compound that is named as a salt.
Recorded metric: Kd (nM)
Hi! Could you send only the number? It should be in nM, unit omitted.

Task: Please look at this compound and report its Kd: C=C(CN(C)Cc1ccccc1)C(=O)/C(=C/c1ccc(Cl)cc1)c1ccccc1 [JN018, hydrochloride]
Result: 7.3

====

System: glucocorticoid response element (GRE) / glucocorticoid receptor
Protocol description: GRE reporter assay
Assay type: cell-based
Test settings: Table 3 grade HIGH/MED/LOW, grades not defined
Structures can show the parent of a compound that is named as a salt.
Recorded metric: GRE

// below: answered molecules
Molecule	GRE
C=C(CN(C)Cc1ccccc1)C(=O)/C(=C/c1ccc(Cl)cc1)c1ccccc1 [JN018, hydrochloride]	LOW
CNC(=O)c1ccc(N2C(=S)N(c3ccc(C#N)c(C(F)(F)F)c3)C(=O)C2(C)C)cc1F [MDV 3100, enzalutamide, reference compound]	LOW
O=C(/C=C/c1ccc(F)cc1)C(=Cc1ccc(F)cc1)c1ccccc1	HIGH
Cc1ccc(/C=C(\CN(C)Cc2ccccc2)C(=O)c2ccccc2)cc1	HIGH
C=CC(O)/C(=C\c1ccc(Cl)cc1)c1ccccc1 (centres unmarked)	LOW

Task: Please look at this molecule and report its GRE: CN(C/C(=C\c1ccc(Cl)cc1)C(=O)c1ccc(Cl)cc1)Cc1ccccc1
Result: HIGH

Task: Please look at this molecule and report its GRE: CN(C/C(=C\c1cccc(Cl)c1)C(=O)c1ccccc1)Cc1ccccc1
Result: LOW

Task: Please look at this molecule and report its GRE: C=C(CN(C)Cc1ccccc1)C(=O)/C(=C/c1cccc(Cl)c1)c1ccccc1.Cl
Result: HIGH

====

System: androgen response element (ARE)
Protocol description: ARE reporter assay (tandem copies of the androgen response element)
Format: cell-based
Test settings: Table 3 grade HIGH/MED/LOW, grades not defined
Counter-ions that a name gives are not always drawn.
Recorded metric: ARE

// below: answered compounds
Compound	Recorded metric	Result
C=C(CN(C)Cc1ccccc1)C(=O)/C(=C/c1ccc(Cl)cc1)c1ccccc1 [JN018, hydrochloride]	ARE	HIGH
C/C(=C\c1ccc(Cl)cc1)C(=O)c1ccccc1	ARE	LOW
O=C(/C(=C/c1ccc(Cl)cc1)CN1CCOCC1)c1ccccc1	ARE	HIGH
CNC(=O)c1ccc(N2C(=S)N(c3ccc(C#N)c(C(F)(F)F)c3)C(=O)C2(C)C)cc1F [MDV 3100, enzalutamide, reference compound]	ARE	HIGH

Task: Please look at this compound and report its ARE: C=C(CN(C)Cc1ccccc1)C(=O)/C(=C/c1ccc(Cl)cc1F)c1ccccc1.Cl
Result: LOW

====

System: androgen response element (ARE)
Protocol description: ARE reporter assay (tandem copies of the androgen response element)
Type: cell-based
Test settings: Table 3 grade HIGH/MED/LOW, grades not defined
Recorded metric: ARE

Smiles structure	ARE
C=C(CN(C)Cc1ccccc1)C(=O)/C(=C/c1ccc(Cl)c(F)c1)c1ccccc1.Cl	LOW
CN(C/C(=C\c1ccc(Cl)c(Cl)c1)C(=O)c1ccccc1)Cc1ccccc1	LOW
CN(C/C(=C\c1ccc(C(F)(F)F)cc1)C(=O)c1ccccc1)Cc1ccccc1	HIGH
C=C(CN(C)Cc1ccccc1)C(=O)/C(=C\c1ccc(F)cc1)c1ccccc1.Cl	MED

Task: Please look at this compound and report its ARE: CN(C/C(=C\c1ccc(Cl)cc1)C(=O)c1ccccc1)Cc1ccccc1
Result: LOW

====

Tested on: CREB TAD
Protocol description: CREB-TAD fused to GAL4 DNA-binding domain reporter assay
Type: cell-based
Test settings: Table 3 grade HIGH/MED/LOW, grades not defined
Where a name gives a salt, the structure may show the parent alone.
Recorded metric: CREB-TAD

// below: answered compounds
Compound	CREB-TAD
CN(C/C(=C\c1ccc(Br)cc1)C(=O)c1ccccc1)Cc1ccccc1 [JN022]	LOW
CNC(=O)c1ccc(N2C(=S)N(c3ccc(C#N)c(C(F)(F)F)c3)C(=O)C2(C)C)cc1F [MDV 3100, enzalutamide, reference compound]	LOW
CN(C/C(=C\c1ccc(Cl)cc1)C(=O)c1ccccc1)Cc1ccccc1 [JN017]	LOW
C=C(CN(C)Cc1ccccc1)C(=O)/C(=C/c1ccc(Cl)cc1)c1ccccc1 [JN018, hydrochloride]	LOW
Cc1ccc(/C=C(\CN(C)Cc2ccccc2)C(=O)c2ccccc2)cc1 [JN043]	MED
CN(C/C(=C\c1cccc(Cl)c1)C(=O)c1ccccc1)Cc1ccccc1 [JN048]	LOW
C=CC(O)/C(=C\c1ccc(Cl)cc1)c1ccccc1 (stereo not shown) [JN003]	LOW
CN(C)C/C(=C\c1ccc(Cl)cc1)C(=O)c1ccccc1 [JN024]	HIGH

Task: Please look at this compound and report its CREB-TAD: CN(C/C(=C\c1ccc(Cl)cc1)C(=O)c1ccc(Cl)cc1)Cc1ccccc1 [JN050]
Result: MED

Task: Please look at this compound and report its CREB-TAD: CN(C/C(=C\c1ccc(C(F)(F)F)cc1)C(=O)c1ccccc1)Cc1ccccc1 [JN044]
Result: MED

====

System: androgen response element (ARE)
Protocol description: ARE reporter assay (tandem copies of the androgen response element)
Assay type: cell-based
Test settings: Table 3 grade HIGH/MED/LOW, grades not defined
Recorded metric: ARE

Smiles structure	ARE
CN(C/C(=C\c1ccc(F)cc1)C(=O)c1ccccc1)Cc1ccccc1	MED
CN(C/C(=C\c1ccc(Br)cc1)C(=O)c1ccccc1)Cc1ccccc1	LOW
O=C(/C=C/c1ccc(F)cc1)C(=Cc1ccc(F)cc1)c1ccccc1	HIGH
C=C(CN(C)Cc1ccccc1)C(=O)/C(=C/c1cccc(Cl)c1)c1ccccc1.Cl	HIGH
CN(C)C/C(=C\c1ccc(Cl)cc1)C(=O)c1ccccc1	HIGH
C=C(C)C(=O)/C(=C\c1ccc(Cl)cc1)c1ccccc1	HIGH

Task: Please look at this molecule and report its ARE: CN(C/C(=C\c1ccc(Cl)cc1)C(=O)c1ccc(Cl)cc1)Cc1ccccc1
Result: HIGH

Task: Please look at this molecule and report its ARE: CN(C/C(=C\c1cccc(Cl)c1)C(=O)c1ccccc1)Cc1ccccc1
Result: HIGH

Task: Please look at this molecule and report its ARE: O=C(/C(=C/c1ccc(Cl)cc1)CN1CCCC1)c1ccccc1
Result: HIGH

Task: Please look at this molecule and report its ARE: Cc1ccc(/C=C(\CN(C)Cc2ccccc2)C(=O)c2ccccc2)cc1
Result: HIGH
